# log10 IC50 listing for each entry below
Test system: human colon adenocarcinoma (HT29)
procedure summary: MTT cell viability assay, HT29
Format: cell-based
conditions: Homo sapiens, HT-29, 72 h, read-out: IC50
measured metric: log10 IC50 (log10 of the value in µg/mL)

# compound, measured on, log10 IC50
records = [
    ("CC(C)c1cc2c(c(O)c1O)C1=CC(=O)CC(C)(C)[C@@]1(C)C=C2 [Compound 17, pygmaeocin C]", "human colon adenocarcinoma (HT29)", 1.18),
    ("CC(C)C1=CC2=C(C(=O)C1=O)C1=CCCC(C)(C)[C@@]1(C)C=C2 [Compound 19, viridoquinone]", "human colon adenocarcinoma (HT29)", 1.78),
    ("CC(C)C1=CC2=C(C(=O)C1=O)[C@@]1(C)CCCC(C)(C)[C@@H]1CC2 [Compound 13]", "human colon adenocarcinoma (HT29)", 0.43),
    ("CC(C)C1=CC2=C(C(=O)C1=O)C1=CC(=O)CC(C)(C)[C@@]1(C)C=C2 [Compound 5, Pygmaeocin B]", "human colon adenocarcinoma (HT29)", 0.83),
    ("CC(C)=CCCc1c(C)ccc2c1C(=O)C(=O)C(C(C)C)=C2 [Compound 7, saprorthoquinone]", "human colon adenocarcinoma (HT29)", 0.89),
]

* * *

System: human hepatocarcinoma (HepG2)
procedure summary: MTT cell viability assay, HepG2
Format: cell-based
conditions: Homo sapiens, HepG2, 72 h, read-out: IC50

# smiles input, unit abbrev, IC50
rows = [
    ("CC(C)C1=CC2=C(C(=O)C1=O)[C@@]1(C)CCCC(C)(C)[C@@H]1CC2", "µg/mL", 5.58),
    ("CC(C)=CCCc1c(C)ccc2c1C(=O)C(=O)C(C(C)C)=C2", "µg/mL", 21.2),
    ("CC(C)C1=CC2=C(C(=O)C1=O)C1=CC(=O)CC(C)(C)[C@@]1(C)C=C2", "µg/mL", 8.98),
    ("CC(C)c1cc2c(c(O)c1O)C1=CC(=O)CC(C)(C)[C@@]1(C)C=C2", "µg/mL", 38.8),
    ("CC(C)C1=CC2=C(C(=O)C1=O)C1=CCCC(C)(C)[C@@]1(C)C=C2", "µg/mL", 76.3),
]

* * *

# IC50 at 72 h listing for each entry below
procedure summary: RAW 264.7 cell viability (MTT)
Format: cell-based, murine
conditions: mouse, RAW 264.7 monocyte/macrophage cells; RAW 264.7, MTT, 0–100 μg/mL; read-out: IC50 (cytotoxicity)
measured metric: IC50 at 72 h (mg/L)

# smiles input, measured metric, unit abbrev, measured result
rows = [
    ("CC(C)C1=CC2=C(C(=O)C1=O)[C@@]1(C)CCCC(C)(C)[C@@H]1CC2", "IC50 at 72 h", "mg/L", 8.18),
    ("CC(C)C1=CC2=C(C(=O)C1=O)C1=CCCC(C)(C)[C@@]1(C)C=C2", "IC50 at 72 h", "mg/L", 9.29),
    ("CC(C)C1=CC2=C(C(=O)C1=O)C1=CC(=O)CC(C)(C)[C@@]1(C)C=C2", "IC50 at 72 h", "mg/L", 0.14),
    ("CC(C)=CCCc1c(C)ccc2c1C(=O)C(=O)C(C(C)C)=C2", "IC50 at 72 h", "mg/L", 2.81),
]

* * *

Test system: NO release in LPS-stimulated RAW 264.7 macrophage cells
procedure summary: Inhibition of nitric oxide production (Griess nitrite assay) in LPS-activated RAW 264.7 macrophages
Assay type: cell-based, murine
conditions: Mus musculus, RAW264.7; LPS-stimulated RAW 264.7, 48 h
# log10(IC50) listing for each entry below
measured metric: log10(IC50) (log10 of the value in µg/mL)

# smiles input, measured on, measured result
rows = [
    ("CC(C)=CCCc1c(C)ccc2c1C(=O)C(=O)C(C(C)C)=C2", "NO release in LPS-stimulated RAW 264.7 macrophage cells", 0.11),
    ("CC(C)C1=CC2=C(C(=O)C1=O)C1=CCCC(C)(C)[C@@]1(C)C=C2", "NO release in LPS-stimulated RAW 264.7 macrophage cells", 0.86),
    ("CC(C)C1=CC2=C(C(=O)C1=O)C1=CC(=O)CC(C)(C)[C@@]1(C)C=C2", "NO release in LPS-stimulated RAW 264.7 macrophage cells", -1.48),
    ("CC(C)c1cc2c(c(O)c1O)C1=CC(=O)CC(C)(C)[C@@]1(C)C=C2", "NO release in LPS-stimulated RAW 264.7 macrophage cells", 0.24),
    ("CC(C)C1=CC2=C(C(=O)C1=O)[C@@]1(C)CCCC(C)(C)[C@@H]1CC2", "NO release in LPS-stimulated RAW 264.7 macrophage cells", 0.31),
]

* * *

procedure summary: RAW 264.7 cell viability (MTT)
Format: cell-based, murine
conditions: mouse

# smiles input, unit abbrev, IC50 at 72 h
records = [
    ("CC(C)c1cc2c(c(O)c1O)C1=CC(=O)CC(C)(C)[C@@]1(C)C=C2", "µg/mL", 6.27),
]
